Give pIC50 for every item shown.
- System: MiaPaCa2 pancreatic cancer cell line
- ASSAY PROCEDURE: Cell viability assay (Cell Titer Glo), MiaPaCa2
- Format: cell-based
- CONDITION INFO: Homo sapiens, MIA PaCa-2; Table 7a; pancreatic cancer cell line, 72 hour incubation
pIC50: −log10 of the molar value. Where a name gives a salt, the structure may show the parent alone.

Observe how each entry below is paired with its result.
CC(C)c1cnc2c(NCc3ccccc3-n3cccn3)cc(SC3CCCNC3)nn12 (stereo not shown) [Compound 63, hydrochloride] :: > 6.00
CC(C)c1cnc2c(NCc3ccccc3C(F)(F)F)cc(SC3CCNCC3)nn12 [Compound 53, hydrochloride] :: > 6.00

Hey, can you go through the list below and give me pIC50 for every item?
1. CC(C)c1cnc2c(NCc3ccccc3OC(F)(F)F)cc(SC3CCNCC3)nn12
2. Fc1cccc(Nc2cc(O[C@@H]3CCNC3)nn3c(C4CC4)cnc23)c1

["> 6.00", "5.30 to 6.00"]

###

- SUBJECT OF TEST: CDK7/CycH/MAT1 (Homo sapiens, UniProt P50613)
- Sequence (P50613 whole entry): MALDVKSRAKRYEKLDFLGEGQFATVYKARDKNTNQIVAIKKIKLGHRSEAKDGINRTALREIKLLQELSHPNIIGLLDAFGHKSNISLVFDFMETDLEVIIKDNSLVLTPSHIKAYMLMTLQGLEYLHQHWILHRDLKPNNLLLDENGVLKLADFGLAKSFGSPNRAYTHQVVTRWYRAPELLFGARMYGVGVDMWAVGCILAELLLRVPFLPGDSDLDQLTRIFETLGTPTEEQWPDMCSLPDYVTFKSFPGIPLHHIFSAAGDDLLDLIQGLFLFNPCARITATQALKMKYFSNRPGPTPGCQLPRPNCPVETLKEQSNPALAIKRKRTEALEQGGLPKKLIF
- Sequence (P51946 whole entry partner): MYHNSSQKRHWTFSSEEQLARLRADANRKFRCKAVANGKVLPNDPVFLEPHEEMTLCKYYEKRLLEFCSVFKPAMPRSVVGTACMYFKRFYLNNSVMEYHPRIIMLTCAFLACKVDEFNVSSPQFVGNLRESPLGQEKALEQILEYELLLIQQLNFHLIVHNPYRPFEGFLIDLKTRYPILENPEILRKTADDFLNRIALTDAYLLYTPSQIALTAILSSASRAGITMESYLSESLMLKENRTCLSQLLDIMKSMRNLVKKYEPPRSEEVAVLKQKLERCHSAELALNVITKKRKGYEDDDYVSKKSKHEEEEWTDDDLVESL
- Sequence (P51948 whole entry partner): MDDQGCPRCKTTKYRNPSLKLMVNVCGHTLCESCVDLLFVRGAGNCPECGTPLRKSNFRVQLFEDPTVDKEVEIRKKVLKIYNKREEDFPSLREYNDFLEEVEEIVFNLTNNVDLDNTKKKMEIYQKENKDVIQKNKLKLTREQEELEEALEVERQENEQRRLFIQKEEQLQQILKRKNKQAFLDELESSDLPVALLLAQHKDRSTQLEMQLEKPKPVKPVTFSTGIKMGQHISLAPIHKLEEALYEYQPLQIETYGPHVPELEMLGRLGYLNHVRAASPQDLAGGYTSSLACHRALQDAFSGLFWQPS
- ASSAY PROCEDURE: Kinase Glo (ADP-Glo) biochemical assay, CDK7
- CONDITION INFO: CDK7/CycH/MAT1 40 ng, ATP 1 μM, 60 minutes at RT, luminescence
Where a name gives a salt, the structure may show the parent alone.
Give IC50 for every item shown.

Observe how each entry below is paired with its result.
CC(C)c1cnc2c(NCc3ccccc3OC(F)F)cc(SC3CCNCC3)nn12 [Compound 66, hydrochloride] :: < 100 nM
Fc1cccc(Nc2cc(O[C@H]3CCCNC3)nn3c(C(F)(F)F)cnc23)c1 [Compound 82, hydrochloride] :: < 100 nM
CN1CCC[C@@H](Oc2cc(Nc3cccc(F)c3)c3ncc(C4CC4)n3n2)C1 [Compound 4] :: > 1000 nM
CN1CCC(Oc2cc(NCc3ccccc3)c3ncc(C4CC4)n3n2)CC1 [Compound 15] :: 100 to 1000 nM
CC(C)c1cnc2c(N[C@@H](C)c3ccccc3)cc(SC3CCNCC3)nn12 [Compound 24] :: < 100 nM
CC(C)c1cnc2c(NCc3ccccc3OC(F)(F)F)cc(SC3CCNCC3)nn12 [Compound 33] :: < 100 nM
CC(C)c1cnc2c(Nc3cccc(F)c3)cc(SC3CCNCC3)nn12 [Compound 44, hydrochloride] :: < 100 nM
CC(C)c1cnc2c(NCc3ccccc3)cc(S[C@H]3CCCNC3)nn12 (single isomer, unassigned) [Compound 42, hydrochloride] :: < 100 nM
CC(C)c1cnc2c(N[C@@H](C)c3ccccc3)nc(SC3CCCNC3)cn12 (stereo partly shown) [Compound 34, hydrochloride] :: < 100 nM
CN1CC[C@H](Oc2cc(NCc3ccccc3)c3ncc(C4CC4)n3n2)C1 [Compound 8] :: 100 to 1000 nM

Hey, can you go through the list below and give me IC50 for every item?
1. CN1CCC[C@H](Nc2cc(NCc3ccccc3)c3ncc(C4CC4)n3n2)C1 [Compound 16]
2. Fc1cccc(Nc2cc(O[C@@H]3CCNC3)nn3c(C4CC4)cnc23)c1 [Compound 6]
3. c1ccc(CNc2cc(SC3CCCNC3)nn3c(C4CC4)cnc23)cc1 (stereo not shown) [Compound 23, dihydrochloride salt]
4. c1ccc(CNc2cc(NCCC3CNCCO3)nn3c(C4CC4)cnc23)cc1 (stereo not shown) [Compound 19, formate]

100 to 1000 nM
< 100 nM
< 100 nM
100 to 1000 nM

Hey, can you go through the list below and give me IC50 for every item?
1. CC(C)c1cnc2c(NCc3ccccc3)cc(S[C@@H]3CCCNC3)nn12 (single isomer, unassigned) [Compound 41, hydrochloride]
2. COc1cc(F)ccc1CNc1cc(SC2CCNCC2)nn2c(C(C)C)cnc12 [Compound 72, hydrochloride]
3. CC(C)c1cnc2c(NCc3ccc(F)cc3F)cc(SC3CCNCC3)nn12 [Compound 56, hydrochloride]
4. CC(C)c1cnc2c(NCc3ccccc3C(F)(F)F)cc(SC3CCNCC3)nn12 [Compound 53, hydrochloride]
5. CC(C)c1cnc2c(Nc3cccc(F)c3)cc(O[C@H]3CCCNC3)nn12 [Compound 39, hydrochloride]
6. CC(C)c1cnc2c(NCc3ccccc3)cc(NC[C@H]3CCCNC3)nn12 [Compound I-4]
7. CC(C)c1cnc2c(Nc3ccccc3C(F)(F)F)cc(SC3CCCNC3)nn12 (stereo not shown) [Compound 61, hydrochloride]
8. CC(C)c1cnc2c(NCc3cccc(C(F)(F)F)c3)cc(SC3CCNCC3)nn12 [Compound 55, hydrochloride]

< 100 nM
< 100 nM
< 100 nM
< 100 nM
< 100 nM
100 to 1000 nM
100 to 1000 nM
< 100 nM

###

- SUBJECT OF TEST: CDK7/CycH/MAT1 (Homo sapiens, UniProt P50613)
- ASSAY PROCEDURE: Kinase Glo (ADP-Glo) biochemical assay, CDK7
- CONDITION INFO: CDK7/CycH/MAT1 40 ng, ATP 1 μM, 60 minutes at RT, luminescence
Counter-ions that a name gives are not always drawn.
MEASUREMENT TYPE: IC50

c1ccc(CNc2cc(SC3CCNCC3)nn3c(C4CC4)cnc23)cc1 [Compound 18, hydrochloride] :: < 100 nM
CC(C)c1cnc2c(NCc3ccccc3OC(F)(F)F)cc(OC3CCNCC3F)nn12 (stereo not shown) [Compound 70, hydrochloride] :: < 100 nM
CC(C)c1cnc2c(NCc3ccccc3OC(F)(F)F)cc(SC3CCNCC3F)nn12 (stereo not shown) [Compound 74, hydrochloride] :: 100 to 1000 nM
COC(=O)[C@@H](N)CSc1cc(NCc2ccccc2)c2ncc(C3CC3)n2n1 [Compound 30, hydrochloride] :: 100 to 1000 nM
CC(C)c1cnc2c(NCc3ccccc3OC(F)(F)F)cc(OC[C@@H]3CNCCO3)nn12 [Compound 49, hydrochloride] :: 100 to 1000 nM
CC(C)c1cnc2c(NCc3ccccc3)cc(NC[C@H]3CCNC[C@@H]3O)nn12 :: < 100 nM

Hey, can you go through the list below and give me IC50 for every item?
1. COc1cc(F)ccc1CNc1cc(SC2CCCNC2)nn2c(C(C)C)cnc12 (stereo not shown) [Compound 79, formate]
2. COc1ccccc1CNc1cc(SC2CCNCC2F)nn2c(C(C)C)cnc12 (stereo not shown) [Compound 73, hydrochloride]
3. CC(C)c1cnc2c(NCc3ccccc3OC(F)(F)F)cc(SC3CCNCC3(F)F)nn12 (stereo not shown) [Compound 76, hydrochloride]
4. CCOc1ccccc1CNc1cc(SC2CCNCC2)nn2c(C(C)C)cnc12 [Compound 65, hydrochloride]
5. CC(C)c1cnc2c(NCc3ccc(F)cc3C(F)(F)F)cc(SC3CCCNC3)nn12 (stereo not shown) [Compound 81, hydrochloride]
6. COc1ccccc1CNc1cc(OC2CCN(C)CC2)nn2c(C3CC3)cnc12
7. CC(C)Oc1ccccc1CNc1cc(SC2CCNCC2)nn2c(C(C)C)cnc12 [Compound 67, hydrochloride]
8. O=C(N1CCC(Sc2cc(NCc3ccccc3)c3ncc(C4CC4)n3n2)CC1)C(F)(F)F

1: 100 to 1000 nM; 2: < 100 nM; 3: 100 to 1000 nM; 4: < 100 nM; 5: 100 to 1000 nM; 6: 100 to 1000 nM; 7: < 100 nM; 8: > 1000 nM

Hey, can you go through the list below and give me IC50 for every item?
1. CC(C)c1cnc2c(Nc3cccc(F)c3)cc(NC3CCNCC3)nn12 [Compound 45, hydrochloride]
2. CN1CCC(Oc2cc(Nc3cccc(F)c3)c3ncc(C4CC4)n3n2)CC1

< 100 nM
100 to 1000 nM

###

Give IC50 for every item shown.
- Tested on: MDA-MB-231 breast cancer cell line
- ASSAY PROCEDURE: Cell viability assay (Cell Titer Glo), MDA-MB-231
- Assay type: cell-based
- CONDITION INFO: Homo sapiens, MDA-MB-231; Table 7a; breast cancer cell line, 72 hour incubation
Structures can show the parent of a compound that is named as a salt.

Observe how each entry below is paired with its result.
CC(C)c1cnc2c(NCc3ccccc3OC(F)(F)F)cc(OC3CCNCC3)nn12 [Compound 43, hydrochloride] :: 1000 to 5000 nM
COc1ccccc1CNc1cc(SC2CCNCC2)nn2c(C(C)C)cnc12 [Compound 35, hydrochloride] :: 1000 to 5000 nM

# input for lookup
Form field - read-out: IC50; system: MDA-MB-231 breast cancer cell line; submitted item: CC(C)c1cnc2c(Nc3cccc(F)c3)cc(O[C@H]3CCCNC3)nn12 [Compound 39, hydrochloride]
1000 to 5000 nM

###

Give pIC50 for every item shown.
- Tested on: MDA-MB-231 breast cancer cell line
- ASSAY PROCEDURE: Cell viability assay (Cell Titer Glo), MDA-MB-231
- Type: cell-based
- CONDITION INFO: Homo sapiens, MDA-MB-231; Table 7a; breast cancer cell line, 72 hour incubation
pIC50: −log10 of the molar value. Where a name gives a salt, the structure may show the parent alone.

CC(C)c1cnc2c(NCc3ccccc3OC(F)(F)F)cc(SC3CCCNC3)nn12 (stereo not shown) :: 5.30 to 6.00
CC(C)c1cnc2c(NCc3ccccc3)nc(SC3CCCNC3)cn12 (stereo not shown) [Compound 26, formate salt] :: < 5.30
c1ccc(CNc2cc(SC3CCCNC3)nn3c(C4CC4)cnc23)cc1 (stereo not shown) [Compound 22, formate] :: 5.30 to 6.00
CC(C)c1cnc2c(Nc3cccc(F)c3)cc(SC3CCNCC3)nn12 [Compound 44, hydrochloride] :: > 6.00
COc1ccccc1CNc1nc(SC2CCNCC2)cn2c(C(C)C)cnc12 [Compound 51, formate] :: < 5.30

Hey, can you go through the list below and give me pIC50 for every item?
1. COc1ccccc1CNc1cc(SC2CCCNC2)nn2c(C(C)C)cnc12 (stereo not shown) [Compound 36, hydrochloride]
2. CC(C)c1cnc2c(NCc3ccccc3)cc(S[C@@H]3CCCNC3)nn12 (single isomer, unassigned) [Compound 41, hydrochloride]
3. CC(C)c1cnc2c(N[C@@H](C)c3ccccc3)cc(SC3CCNCC3)nn12
4. COc1ccccc1CNc1cc(NC2CCNCC2)nn2c(C(C)C)cnc12 [Compound 40, hydrochloride]

["5.30 to 6.00", "5.30 to 6.00", "5.30 to 6.00", "5.30 to 6.00"]

Hey, can you go through the list below and give me pIC50 for every item?
1. CC(C)c1cnc2c(N[C@@H](C)c3ccccc3)nc(SC3CCNCC3)cn12 [Compound 32, dihydrochloride]
2. CC(C)c1cnc2c(NCc3ccccc3OC(F)(F)F)cc(SC3CCNCC3)nn12
3. CC(C)c1cnc2c(NCc3ccccc3C(F)(F)F)cc(SC3CCNCC3)nn12 [Compound 53, hydrochloride]
4. CC(C)c1cnc2c(NCc3ccccc3OC(F)(F)F)cc(NC[C@H]3CNCCO3)nn12 [Compound 48, hydrochloride]
5. CC(C)c1cnc2c(NCc3ccccc3OC(F)(F)F)cc(NC[C@@H]3CNCCO3)nn12 [Compound 46, hydrochloride]
6. CC(C)c1cnc2c(Nc3cccc(F)c3)cc(NC3CCNCC3)nn12 [Compound 45, hydrochloride]
7. CC(C)c1cnc2c(N[C@@H](C)c3ccccc3)nc(SC3CCCNC3)cn12 (stereo partly shown) [Compound 34, hydrochloride]

< 5.30
5.30 to 6.00
5.30 to 6.00
5.30 to 6.00
5.30 to 6.00
5.30 to 6.00
< 5.30
